- System: 494315-158-R-J1-PDC complex spheroid growth, percent test/control
- Test Summary: Anticancer human tumor 494315-158-R-J1-PDC patient-derived soft tissue sarcoma cell line growth inhibition [Asc]
- Condition Summary: second compound 10 µM; first compound 0.1 µM; hits give low values
Please assign NOT MET whenever viability, T/C is at or above 80%, and MET whenever it is below.

Past entries and their recorded results:
INSERT INTO assay_data (molecule, measured_target, assigned_category) VALUES
  ('O=C(c1cc(Cc2n[nH]c(=O)c3ccccc23)ccc1F)N1CCN(C(=O)C2CC2)CC1 + Cc1c(S(C)(=O)=O)c(-c2cc(F)cc(N3CCN(c4ccc(NS(=O)(=O)c5ccc(NC(CCN6CCC(C(=O)OCCCP(=O)(O)O)CC6)CSc6ccccc6)c(S(=O)(=O)C(F)(F)F)c5)cc4)CC3)c2)c(-c2ccc(Cl)cc2)n1C(C)C', '494315-158-R-J1-PDC complex spheroid growth, percent test/control', 'MET'),
  ('COc1c(OCCCN2CCOCC2)ccc2c3n(c(=NC(=O)c4cnc(N)nc4)nc12)CCN3 + Cc1c(S(C)(=O)=O)c(-c2cc(F)cc(N3CCN(c4ccc(NS(=O)(=O)c5ccc(NC(CCN6CCC(C(=O)OCCCP(=O)(O)O)CC6)CSc6ccccc6)c(S(=O)(=O)C(F)(F)F)c5)cc4)CC3)c2)c(-c2ccc(Cl)cc2)n1C(C)C', '494315-158-R-J1-PDC complex spheroid growth, percent test/control', 'MET'),
  ('CNC(C)C(=O)NC1CN(S(=O)(=O)c2cccc(S(=O)(=O)N3CCC4CCC(C(=O)NC(c5ccccc5)c5ccccc5)N4C(=O)C(NC(=O)C(C)NC)C3)c2)CCC2CCC(C(=O)NC(c3ccccc3)c3ccccc3)N2C1=O (stereo unspecified) + Cc1c(S(C)(=O)=O)c(-c2cc(F)cc(N3CCN(c4ccc(NS(=O)(=O)c5ccc(NC(CCN6CCC(C(=O)OCCCP(=O)(O)O)CC6)CSc6ccccc6)c(S(=O)(=O)C(F)(F)F)c5)cc4)CC3)c2)c(-c2ccc(Cl)cc2)n1C(C)C', '494315-158-R-J1-PDC complex spheroid growth, percent test/control', 'MET');

Would you kindly verify if viability, T/C of C=CC(=O)N1CCN(c2nc(=O)n(-c3c(C)ccnc3C(C)C)c3nc(-c4c(O)cccc4F)c(F)cc23)C(C)C1 (stereo unspecified) + Cc1c(S(C)(=O)=O)c(-c2cc(F)cc(N3CCN(c4ccc(NS(=O)(=O)c5ccc(NC(CCN6CCC(C(=O)OCCCP(=O)(O)O)CC6)CSc6ccccc6)c(S(=O)(=O)C(F)(F)F)c5)cc4)CC3)c2)c(-c2ccc(Cl)cc2)n1C(C)C is strictly less than 80%?
NOT MET

Is the reported viability, T/C for NC1CCC(NC2CC2c2ccccc2)CC1 (stereo unspecified) + Cc1c(S(C)(=O)=O)c(-c2cc(F)cc(N3CCN(c4ccc(NS(=O)(=O)c5ccc(NC(CCN6CCC(C(=O)OCCCP(=O)(O)O)CC6)CSc6ccccc6)c(S(=O)(=O)C(F)(F)F)c5)cc4)CC3)c2)c(-c2ccc(Cl)cc2)n1C(C)C strictly below 80%?
MET

====

Assign viability, T/C to each entry below.
- Tested on: 494315-158-R-J1-PDC complex spheroid growth, percent test/control
- Test Summary: Anticancer human tumor 494315-158-R-J1-PDC cell line growth inhibition [Asc];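 also: compound exposure lasted seven days after spheroids formed for three days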
- Condition Summary: second compound 0.3 µM; first compound 1 µM; hits give low values
Answers are plain numbers, in %.

Completed entries (count: 2):
INSERT INTO results (compound, measured_target, property_measured, measurement) VALUES
  ('CNC(C)C(=O)NC1CN(S(=O)(=O)c2cccc(S(=O)(=O)N3CCC4CCC(C(=O)NC(c5ccccc5)c5ccccc5)N4C(=O)C(NC(=O)C(C)NC)C3)c2)CCC2CCC(C(=O)NC(c3ccccc3)c3ccccc3)N2C1=O (centres undefined) + CCN1C(C(=O)NC23CCC(C(=O)O)(CC2)CC3)C(c2cccc(Cl)c2F)C2(C(=O)Nc3cc(Cl)ccc32)C12CCCCC2', '494315-158-R-J1-PDC complex spheroid growth, percent test/control', 'viability, T/C', 38.5),
  ('CCN1CCN(Cc2ccc(Nc3ncc(F)c(-c4cc(F)c5nc(C)n(C(C)C)c5c4)n3)nc2)CC1 + CCN1C(C(=O)NC23CCC(C(=O)O)(CC2)CC3)C(c2cccc(Cl)c2F)C2(C(=O)Nc3cc(Cl)ccc32)C12CCCCC2', '494315-158-R-J1-PDC complex spheroid growth, percent test/control', 'viability, T/C', 97.2);

Look up viability, T/C for the entries below, preserving their order.
1. C#Cc1c(F)ccc2cc(O)cc(-c3ncc4c(N5CC6CCC(C5)N6)nc(OCC56CCCN5CC(F)C6)nc4c3F)c12 (centres undefined) + CCN1C(C(=O)NC23CCC(C(=O)O)(CC2)CC3)C(c2cccc(Cl)c2F)C2(C(=O)Nc3cc(Cl)ccc32)C12CCCCC2
2. O=C(c1ccc(F)c(F)c1Nc1ccc(I)cc1F)N1CC(O)([C@@H]2CCCCN2)C1 + CCN1C(C(=O)NC23CCC(C(=O)O)(CC2)CC3)C(c2cccc(Cl)c2F)C2(C(=O)Nc3cc(Cl)ccc32)C12CCCCC2

[103, 51.2]

====

- Test system: 494315-158-R-J1-PDC complex spheroid growth, percent test/control
- Test Summary: Anticancer human tumor 494315-158-R-J1-PDC cell line growth inhibition [Asc];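 also: compound exposure lasted seven days after spheroids formed for three days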
- Condition Summary: second compound 0.3 µM; first compound 0.01 µM; hits give low values
- From the text: Multicellular complex tumor spheroid response to apoptosis pathway targeting inhibitors Alrizomadlin, Pelcitoclax, and Dasminapant in combination with a variety of drugs and investigational agents in selected tumor cell lines […] Compounds. […] If the clinical Cmax for an agent had not been determined, the highest concentration tested was 10 microM. […]
Property Measured: viability, T/C (%)
One number for each entry, in %.

Previously resolved entries follow.
INSERT INTO results (compound, units_of_measure, measurement) VALUES
  ('CNC(C)C(=O)NC1CN(S(=O)(=O)c2cccc(S(=O)(=O)N3CCC4CCC(C(=O)NC(c5ccccc5)c5ccccc5)N4C(=O)C(NC(=O)C(C)NC)C3)c2)CCC2CCC(C(=O)NC(c3ccccc3)c3ccccc3)N2C1=O (stereo unspecified) + CCN1C(C(=O)NC23CCC(C(=O)O)(CC2)CC3)C(c2cccc(Cl)c2F)C2(C(=O)Nc3cc(Cl)ccc32)C12CCCCC2', '%', 63.6),
  ('COc1c(OCCCN2CCOCC2)ccc2c3n(c(=NC(=O)c4cnc(N)nc4)nc12)CCN3 + CCN1C(C(=O)NC23CCC(C(=O)O)(CC2)CC3)C(c2cccc(Cl)c2F)C2(C(=O)Nc3cc(Cl)ccc32)C12CCCCC2', '%', 90.4),
  ('Cn1ncnc1[C@H]1c2n[nH]c(=O)c3cc(F)cc(c23)N[C@@H]1c1ccc(F)cc1 + CCN1C(C(=O)NC23CCC(C(=O)O)(CC2)CC3)C(c2cccc(Cl)c2F)C2(C(=O)Nc3cc(Cl)ccc32)C12CCCCC2', '%', 76.2);

Answer for every listed entry: what is its viability, T/C? The entries follow.
1. NC1CCC(NC2CC2c2ccccc2)CC1 (stereo unspecified) + CCN1C(C(=O)NC23CCC(C(=O)O)(CC2)CC3)C(c2cccc(Cl)c2F)C2(C(=O)Nc3cc(Cl)ccc32)C12CCCCC2
2. CCN1CCN(Cc2ccc(Nc3ncc(F)c(-c4cc(F)c5nc(C)n(C(C)C)c5c4)n3)nc2)CC1 + CCN1C(C(=O)NC23CCC(C(=O)O)(CC2)CC3)C(c2cccc(Cl)c2F)C2(C(=O)Nc3cc(Cl)ccc32)C12CCCCC2
3. O=C(c1ccc(F)c(F)c1Nc1ccc(I)cc1F)N1CC(O)([C@@H]2CCCCN2)C1 + CCN1C(C(=O)NC23CCC(C(=O)O)(CC2)CC3)C(c2cccc(Cl)c2F)C2(C(=O)Nc3cc(Cl)ccc32)C12CCCCC2

88.7
104
114

====

- Tested on: 494315-158-R-J1-PDC complex spheroid growth, percent test/control
- Test Summary: Anticancer human tumor 494315-158-R-J1-PDC cell line growth inhibition [Asc]; active = viability on the fitted dose curve at most 10% of control; inactive = the rest;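 also: compound exposure lasted seven days after spheroids formed for three days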
- Condition Summary: second compound 0.01 µM; first compound 1 µM
Entry note: the call must match one of active, inactive

INSERT INTO measurements (compound, measured_target, assigned_category) VALUES
  ('COc1c(OCCCN2CCOCC2)ccc2c3n(c(=NC(=O)c4cnc(N)nc4)nc12)CCN3 + CNC(C)C(=O)NC1CN(S(=O)(=O)c2cccc(S(=O)(=O)N3CCC4CCC(C(=O)NC(c5ccccc5)c5ccccc5)N4C(=O)C(NC(=O)C(C)NC)C3)c2)CCC2CCC(C(=O)NC(c3ccccc3)c3ccccc3)N2C1=O', '494315-158-R-J1-PDC complex spheroid growth, percent test/control', 'active');

Next item in the queue.
Which outcome was assigned to C=CC(=O)N1CCN(c2nc(=O)n(-c3c(C)ccnc3C(C)C)c3nc(-c4c(O)cccc4F)c(F)cc23)C(C)C1 (configuration not stated) + CNC(C)C(=O)NC1CN(S(=O)(=O)c2cccc(S(=O)(=O)N3CCC4CCC(C(=O)NC(c5ccccc5)c5ccccc5)N4C(=O)C(NC(=O)C(C)NC)C3)c2)CCC2CCC(C(=O)NC(c3ccccc3)c3ccccc3)N2C1=O in this test?
inactive
